This section presents compounds with their documented Th-T fluorescence, mean of three wells (Fig. 7a) values.
- TEST TARGET: Aβ42 (Homo sapiens, UniProt P05067)
- Sequence (P05067 672-713): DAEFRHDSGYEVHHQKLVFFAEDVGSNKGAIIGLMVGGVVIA
- ASSAY NOTES: Th-T (thioflavin-T) assay of Aβ42 aggregation
- Format: biochemical
- COND: column suffix _20; measurement M25
Simply state the number, no unit and no words.

These solved cases illustrate the format of a correct answer.
In [3]: df
Out[3]:
                                   compound  reported_value
0  C=C1CCC2C(C)(CCC=C(C)C)C(O)CCC2(C)C1Cc1c(OC)oc(CO)c(C)c1=O (centres unmarked)            2.43
1  C=C1CC[C@@H]2[C@](C)(CC[C@H]3O[C@H](C=C(C)C)C[C@@]23C)[C@@H]1Cc1c(OC)oc(CO)c(C)c1=O           3.328
2  C=C1CCC2C(C)(CCC=C(C)C)C(O)CCC2(C)C1Cc1c(OC)oc(C)c(C(=O)OC)c1=O (centres unmarked)           1.478
3  C=C1CCC2C(C)(CCC=C(C)C)C(O)CCC2(C)C1Cc1c(OC)oc(CO)c(C(=O)OC)c1=O (centres unmarked)          0.1855

Turning to the following compound.
q: So what Th-T fluorescence, mean of three wells (Fig. 7a) did C=C1CC[C@@H]2[C@](C)(CC[C@H]3O[C@H](C=C(C)C)C[C@@]23C)[C@@H]1Cc1c(OC)oc(CO)c(C(=O)OC)c1=O get with Aβ42 (Homo sapiens, UniProt P05067)?
a: 0.2016

====

- TEST TARGET: Aβ42 (Homo sapiens, UniProt P05067)
- ASSAY NOTES: Th-T (thioflavin-T) assay of Aβ42 aggregation
- Format: biochemical
- COND: concentration 10, unit not given; time-course reading M130
Label 1 when Th-T fluorescence of Aβ42 with compound, mean of three wells (Fig. 7a source data) is strictly below 2; at or above that, label -1.

// below: answered compounds
                                   compound                          test_target  class_label
0  C=C1CC[C@@H]2[C@](C)(CC[C@H]3O[C@H](C=C(C)C)C[C@@]23C)[C@@H]1Cc1c(OC)oc(CO)c(C(=O)OC)c1=O  Aβ42 (Homo sapiens, UniProt P05067)            1
1  C=C1CCC2C(C)(CCC=C(C)C)C(O)CCC2(C)C1Cc1c(OC)oc(C)c(C(=O)OC)c1=O (centres unmarked)  Aβ42 (Homo sapiens, UniProt P05067)           -1
2  C=C1CCC2C(C)(CCC=C(C)C)C(O)CCC2(C)C1Cc1c(OC)oc(CO)c(C(=O)OC)c1=O (centres unmarked)  Aβ42 (Homo sapiens, UniProt P05067)            1
3  C=C1CC[C@@H]2[C@](C)(CC[C@H]3O[C@H](C=C(C)C)C[C@@]23C)[C@@H]1Cc1c(OC)oc(CO)c(C)c1=O  Aβ42 (Homo sapiens, UniProt P05067)           -1

q: Please state whether Th-T fluorescence of Aβ42 with compound, mean of three wells (Fig. 7a source data) is below 2 for C=C1CCC2C(C)(CCC=C(C)C)C(O)CCC2(C)C1Cc1c(OC)oc(CO)c(C)c1=O (centres unmarked)
a: -1

====

- TEST TARGET: Aβ42 (Homo sapiens, UniProt P05067)
- ASSAY NOTES: Th-T (thioflavin-T) assay of Aβ42 aggregation
- Assay type: biochemical
- COND: concentration 10, unit not given; time-course reading M139
So basically: Th-T fluorescence of Aβ42 with compound, mean of three wells (Fig. 7a source data) at 2 or higher? That is yes. Lower than 2? That is no.

// below: answered molecules
In [3]: df
Out[3]:
                                   molecule  class_label
0  C=C1CC[C@@H]2[C@](C)(CC[C@H]3O[C@H](C=C(C)C)C[C@@]23C)[C@@H]1Cc1c(OC)oc(CO)c(C)c1=O          yes
1  C=C1CCC2C(C)(CCC=C(C)C)C(O)CCC2(C)C1Cc1c(OC)oc(CO)c(C(=O)OC)c1=O (centres unmarked)           no
2  C=C1CCC2C(C)(CCC=C(C)C)C(O)CCC2(C)C1Cc1c(OC)oc(C)c(C(=O)OC)c1=O (centres unmarked)          yes
3  C=C1CC[C@@H]2[C@](C)(CC[C@H]3O[C@H](C=C(C)C)C[C@@]23C)[C@@H]1Cc1c(OC)oc(CO)c(C(=O)OC)c1=O           no

q: API: above_or_equal(metric=Th-T fluorescence of Aβ42 with compound, mean of three wells (Fig. 7a source data), cutoff=2) for item C=C1CCC2C(C)(CCC=C(C)C)C(O)CCC2(C)C1Cc1c(OC)oc(CO)c(C)c1=O (centres unmarked)
a: yes

====

- TEST TARGET: UniProt:P05067
- ASSAY NOTES: Th-T (thioflavin-T) assay of Aβ42 aggregation
- Format: biochemical
- COND: reading M25; Supplementary Fig. 47 source data
MEASURED PARAMETER: Th-T fluorescence, mean of three wells

>>> print(df.to_string())
                                   compound     test_target  reported_value
0  C=C1CC[C@@H]2[C@](C)(CC[C@H]3O[C@H](C=C(C)C)C[C@@]23C)[C@@H]1Cc1c(O)c(C)c(C)oc1=O  UniProt:P05067           2.777
1  C=C1CCC2C(C)(CC(=O)C=C(C)C)C(O)CCC2(C)C1Cc1c(O)c(C)c(C)oc1=O (stereo not shown)  UniProt:P05067          3.1034
2  C=C1CC[C@H]2[C@]3(C)C[C@H](C=C(C)C)O[C@H]3CC[C@]2(C)[C@@H]1Cc1c(O)c(C)c(C)oc1=O  UniProt:P05067           2.775

q: Recorded Th-T fluorescence, mean of three wells of C=C1CCC2C(C)(CCC=C(C)C)C(=O)CCC2(C)C1Cc1c(O)c(C)c(C)oc1=O (stereo not shown) , please.
a: 1.959

q: Recorded Th-T fluorescence, mean of three wells of C=C1CC[C@H]2[C@]3(C)C[C@@H](C=C(C)C)O[C@H]3CC[C@]2(C)[C@@H]1Cc1c(O)c(C)c(C)oc1=O , please.
a: 2.421

q: Recorded Th-T fluorescence, mean of three wells of C=C1CCC2C3(C)CC(C=C(C)C)OC3CCC2(C)C1Cc1c(OC)oc(C)c(C)c1=O (stereo not shown) , please.
a: 3.61

q: Recorded Th-T fluorescence, mean of three wells of CC(C)=CCC/C(C)=C/CC/C(C)=C/CC/C(C)=C/Cc1c(O)c(C)c(C)oc1=O , please.
a: 2.6309

====

- Tested on: l(2)mbn cells
- ASSAY NOTES: cytotoxicity in Drosophila l(2)mbn cells
- Format: cell-based
- COND: 1 µM, replicate 2
This section presents compounds with their documented Luminescence Raw2 values.
Simply state the number, no unit and no words.

These solved cases illustrate the format of a correct answer.
>>> df
                                   compound    test_target  reported_value
0  C=C1CC[C@H]2[C@]3(C)C[C@H](C=C(C)C)O[C@H]3CC[C@]2(C)[C@@H]1Cc1c(OC)oc(C)c(C)c1=O [Compound 24]  l(2)mbn cells         3138530
1  C=C1CCC2C(C)(CCC=C(C)C)C(O)CCC2(C)C1Cc1c(O)c(C)c(C)oc1=O (stereo not shown) [Compound 9, higginsianin B]  l(2)mbn cells         5292296
2  C=C1CCC2C(C)(CC(=O)C=C(C)C)C(O)CCC2(C)C1Cc1c(O)c(C)c(C)oc1=O (stereo not shown) [Compound 7]  l(2)mbn cells         3388873
3  C=C1CCC2C(C)(CCC=C(C)C)C(O)CCC2(C)C1Cc1c(OC)oc(C)c(C)c1=O (stereo not shown) [Compound 11]  l(2)mbn cells         1297263
4  C=C1CCC2C3(C)CC(C=C(C)C)OC3CCC2(C)C1Cc1c(OC)oc(C)c(C)c1=O (stereo not shown) [Compound 23]  l(2)mbn cells         1863873

q: Recorded Luminescence Raw2 of C=C1CCC2C(C)(CCC=C(C)C)C(O)CCC2(C)C1Cc1c(O)c(C)c(C)oc1=O (stereo not shown) [Compound 4] , please.
a: 5886607

q: Recorded Luminescence Raw2 of C=C1CC[C@@H]2[C@](C)(CC[C@H]3O[C@H](C=C(C)C)C[C@@]23C)[C@@H]1Cc1c(O)c(C)c(C)oc1=O [Compound 10, higginsianin A] , please.
a: 1075282
